Reference source for all entries: paper PMC7565988

assay: Redox reaction of copper(II) complexes with GSH, anaerobic UV/Vis kinetics; format: physicochemical; conditions: copper(II) complex (1–4) of the proligand, pH = 7.4, ccomplex = 25 μM, cGSH = 1.25 mM
Value kind: kobs, observed rate constant of the redox reaction with GSH (min⁻¹)

- Molecule: "C[N+](C)(C)Cc1ccc(O)c(/C=N/NC(=S)Nc2ccccc2)c1 [[H2L^Ph]Cl]"
  Readout number: 0.025
- Molecule: "CNC(=S)N/N=C/c1cc(C[N+](C)(C)C)ccc1O [[H2L^Me]Cl]"
  Readout number: 0.073
- Molecule: "CCNC(=S)N/N=C/c1cc(C[N+](C)(C)C)ccc1O [[H2L^Et]Cl]"
  Readout number: 0.058
- Molecule: "C[N+](C)(C)Cc1ccc(O)c(/C=N/NC(N)=S)c1 [[H2L^H]Cl]"
  Readout number: 0.080

====

target: OCT1 (Homo sapiens, UniProt O15245); construct: expressed in transfected cells; test: [3H]-MPP+ uptake inhibition assay in HEK-293 cells; type: cell-based; details: HEK cells stably expressing human OCT1; 10 min uptake
Sequence (O15245 whole entry): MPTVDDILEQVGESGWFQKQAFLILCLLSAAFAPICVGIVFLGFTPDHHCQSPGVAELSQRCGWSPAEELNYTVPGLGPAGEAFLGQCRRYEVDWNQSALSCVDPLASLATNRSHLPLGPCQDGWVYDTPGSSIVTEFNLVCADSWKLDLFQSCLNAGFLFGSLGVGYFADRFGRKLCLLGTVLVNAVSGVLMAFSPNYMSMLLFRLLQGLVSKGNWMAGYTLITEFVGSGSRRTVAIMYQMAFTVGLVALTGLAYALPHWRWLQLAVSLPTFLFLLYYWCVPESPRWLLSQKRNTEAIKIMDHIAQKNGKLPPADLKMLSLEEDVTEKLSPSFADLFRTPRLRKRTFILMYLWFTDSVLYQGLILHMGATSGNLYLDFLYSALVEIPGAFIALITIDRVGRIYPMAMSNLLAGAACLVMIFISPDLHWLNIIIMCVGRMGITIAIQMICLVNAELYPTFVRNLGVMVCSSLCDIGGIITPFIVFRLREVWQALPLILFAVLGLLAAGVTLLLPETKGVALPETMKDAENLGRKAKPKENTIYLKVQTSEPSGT
IC50 values for the compounds below.

- Compound: "CCNC(=S)N/N=C/c1cc(C[N+](C)(C)C)ccc1O [[H2L^Et]Cl]"
  Unit symbol: "µM"
  IC50: 169
- Compound: "C[N+](C)(C)Cc1ccc(O)c(/C=N/NC(N)=S)c1 [[H2L^H]Cl]"
  Unit symbol: "µM"
  IC50: 740
- Compound: "CNC(=S)N/N=C/c1cc(C[N+](C)(C)C)ccc1O [[H2L^Me]Cl]"
  Unit symbol: "µM"
  IC50: 391
- Compound: "C[N+](C)(C)Cc1ccc(O)c(/C=N/NC(=S)Nc2ccccc2)c1 [[H2L^Ph]Cl]"
  Unit symbol: "µM"
  IC50: 119

====

test: Proton dissociation constants (pKa) of proligands by UV/Vis spectrophotometric titration; type: physicochemical; conditions: fraction of proligand in neutral zwitterionic HL form at pH 7.4, computed with pKa
Value kind: % HL at pH 7.4 (%)

- Compound: "C[N+](C)(C)Cc1ccc(O)c(/C=N/NC(N)=S)c1 [[H2L^H]Cl]"
  Unit symbol: "%"
  Readout number: 47
- Compound: "C[N+](C)(C)Cc1ccc(O)c(/C=N/NC(=S)Nc2ccccc2)c1 [[H2L^Ph]Cl]"
  Unit symbol: "%"
  Readout number: 70
- Compound: "CCNC(=S)N/N=C/c1cc(C[N+](C)(C)C)ccc1O [[H2L^Et]Cl]"
  Unit symbol: "%"
  Readout number: 55
- Compound: "CNC(=S)N/N=C/c1cc(C[N+](C)(C)C)ccc1O [[H2L^Me]Cl]"
  Unit symbol: "%"
  Readout number: 42

====

system: SH-SY5Y neuroblastoma cells; assay: MTT cytotoxicity (24 h) / antiproliferation (72 h) assay; assay type: cell-based, human; conditions: 24 h exposure; MTT
pIC50: −log10 of the molar value.

- Compound: "N.N.[Cl][Pt][Cl] [Cisplatin, reference compound]"
  pIC50: 4.58

====

Assay: Solution stability of copper(II) complexes, UV/Vis spectrophotometric titration
Format: physicochemical
Settings: copper(II) complex of the proligand; I = 0.1 M (KCl); t = 25 °C
Protocol: An Agilent Carry 8454 diode array spectrophotometer was used to record the UV/Vis spectra in the interval 200–800 nm. The path length was 1 cm. Proton dissociation constants (pKa) of the TSC ligands, the overall stability constants of the copper(II) monoligand complexes (logβ) and the individual spectra of the species in the various protonation states and stoichiometry were calculated by the computer program PSEQUAD [44]. […]
Form field: logβ [CuL]+ (one value per entry).
Value kind: logβ [CuL]+

- Compound: "C[N+](C)(C)Cc1ccc(O)c(/C=N/NC(=S)Nc2ccccc2)c1 [[H2L^Ph]Cl]"
  Value kind: "logβ [CuL]+"
  Readout number: 8.55
- Compound: "CCNC(=S)N/N=C/c1cc(C[N+](C)(C)C)ccc1O [[H2L^Et]Cl]"
  Value kind: "logβ [CuL]+"
  Readout number: 7.67
- Compound: "CNC(=S)N/N=C/c1cc(C[N+](C)(C)C)ccc1O [[H2L^Me]Cl]"
  Value kind: "logβ [CuL]+"
  Readout number: 7.76
- Compound: "C[N+](C)(C)Cc1ccc(O)c(/C=N/NC(N)=S)c1 [[H2L^H]Cl]"
  Value kind: "logβ [CuL]+"
  Readout number: 8.14
